- assay_notes: Plasma pharmacokinetics of fenretinide in mice
- Assay type: in vivo, CD1 female mice
- stated_conditions: mouse, iv; CD1 female mice, 5 mg/Kg fenretinide, plasma
- Procedure: The experiments were performed in CD1 female mice, 7 weeks of age, (body weight 25 ± 2 g) obtained from Envigo RMS SrL (Udine, Italy). […] The total concentration of fenretinide in plasma of mice was determined according to a method previously described. […] The recovered supernatants were analysed on a liquid chromatograph (Perkin-Elmer, Norwall, CT) fitted with a C18 (50 mm × 2.0 mm, 5 μm) reverse-phase column and a C18 precolumn (Perkin-Elmer, Milan, Italy). […]
readout_label: Cmax

>>> test_result("CC1=C(/C=C/C(C)=C/C=C/C(C)=C/C(=O)Nc2ccc(O)cc2)C(C)(C)CCC1 [PureFEN, N-(4-Hydroxyphenyl) retinamide]")
"4130 ng/mL"

====

- assay_notes: Plasma pharmacokinetics of fenretinide in mice
- Type: in vivo, CD1 female mice
- stated_conditions: female, CD1, mouse, iv; Fig. 1e, single administration of 5 mg/kg, plasma
- Experimental: The experiments were performed in CD1 female mice, 7 weeks of age, (body weight 25 ± 2 g) obtained from Envigo RMS SrL (Udine, Italy). […] The total concentration of fenretinide in plasma of mice was determined according to a method previously described. […] The recovered supernatants were analysed on a liquid chromatograph (Perkin-Elmer, Norwall, CT) fitted with a C18 (50 mm × 2.0 mm, 5 μm) reverse-phase column and a C18 precolumn (Perkin-Elmer, Milan, Italy). […]
readout_label: AUC (ng·h/mL)

>>> test_result("CC1=C(/C=C/C(C)=C/C=C/C(C)=C/C(=O)Nc2ccc(O)cc2)C(C)(C)CCC1 [PureFEN, N-(4-Hydroxyphenyl) retinamide]")
6570

====

- assay_notes: Plasma pharmacokinetics of fenretinide in mice
- Format: in vivo, CD1 female mice
- stated_conditions: mouse, iv; CD1 female mice, 5 mg/Kg fenretinide, plasma
readout_label: AUC(0-t) (ng·h/mL)

>>> test_result("CC1=C(/C=C/C(C)=C/C=C/C(C)=C/C(=O)Nc2ccc(O)cc2)C(C)(C)CCC1 [PureFEN, N-(4-Hydroxyphenyl) retinamide]")
6420

====

- assay_notes: Plasma pharmacokinetics of fenretinide in mice
- Type: in vivo, CD1 female mice
- stated_conditions: mouse, plasma, iv; CD1 female mice, 5 mg/Kg fenretinide
readout_label: Vd (L/kg)

>>> test_result("CC1=C(/C=C/C(C)=C/C=C/C(C)=C/C(=O)Nc2ccc(O)cc2)C(C)(C)CCC1 [PureFEN, N-(4-Hydroxyphenyl) retinamide]")
6.52

====

- assay_notes: Plasma pharmacokinetics of fenretinide in mice
- Type: in vivo, CD1 female mice
- stated_conditions: mouse, plasma, iv; CD1 female mice, 5 mg/Kg fenretinide
readout_label: clearance (mL/min/kg)

>>> test_result("CC1=C(/C=C/C(C)=C/C=C/C(C)=C/C(=O)Nc2ccc(O)cc2)C(C)(C)CCC1 [PureFEN, N-(4-Hydroxyphenyl) retinamide]")
9.57

====

- assay_notes: Plasma pharmacokinetics of fenretinide in mice
- Type: in vivo, CD1 female mice
- stated_conditions: mouse, plasma, iv; CD1 female mice, 5 mg/Kg fenretinide, i.v.; read-out: Ke (converted)
readout_label: k el (s⁻¹)

>>> test_result("CC1=C(/C=C/C(C)=C/C=C/C(C)=C/C(=O)Nc2ccc(O)cc2)C(C)(C)CCC1 [PureFEN, N-(4-Hydroxyphenyl) retinamide]")
"2.44e-05"
